- TARGET_DESC: JMJD5 (Homo sapiens, UniProt Q8N371)
- Sequence (Q8N371 whole entry): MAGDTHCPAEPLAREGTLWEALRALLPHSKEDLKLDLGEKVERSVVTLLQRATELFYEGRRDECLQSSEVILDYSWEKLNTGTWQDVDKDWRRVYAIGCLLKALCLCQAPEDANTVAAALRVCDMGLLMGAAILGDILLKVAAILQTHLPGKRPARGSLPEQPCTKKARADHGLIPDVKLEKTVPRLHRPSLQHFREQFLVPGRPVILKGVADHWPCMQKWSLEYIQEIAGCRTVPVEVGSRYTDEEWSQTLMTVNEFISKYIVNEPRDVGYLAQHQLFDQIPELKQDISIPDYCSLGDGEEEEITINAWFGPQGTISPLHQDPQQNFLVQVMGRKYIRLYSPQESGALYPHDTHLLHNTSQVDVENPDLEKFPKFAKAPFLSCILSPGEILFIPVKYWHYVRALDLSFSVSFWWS
- ASSAY_PROTOCOL: biochemical
- REPORTED_CONDITIONS: read-out: JMJD5 IC50
pIC50: −log10 of the molar value.
// values below are reported pIC50
EXPERIMENTAL_ENDPOINT: pIC50

>>> measured_value("O=C(O)Cc1cs/c(=N\\C(=O)CCNS(=O)(=O)c2ccccc2)n1O")
4.87
>>> measured_value("O=C(O)Cc1csc(=NC(=O)C2CCN(S(=O)(=O)c3ccc(C(F)(F)F)cc3)C2)n1O (centres unmarked)")
4.20
>>> measured_value("O=C(O)Cc1csc(=NC(=O)C2CCN(S(=O)(=O)c3ccccc3)C2)n1O (centres unmarked)")
4.90
>>> measured_value("O=C(O)Cc1csc(=NC(=O)C2CCN(S(=O)(=O)c3ccccc3Cl)C2)n1O (centres unmarked)")
4.92
>>> measured_value("O=C(O)Cc1csc(=NC(=O)C2CCN(S(=O)(=O)c3ccc(Oc4ccccc4)cc3)C2)n1O (centres unmarked)")
5.07
